- Method Summary: NCI Yeast Anticancer Drug Screen. Data for the bub3 strain (AID 167)
- Setup Conditions: S. cerevisiae bub3 mutant strain, at 50.0 µM, stronger effect = higher value
Compounds without any hit were thinned out: in the full panel of roughly 79,000, 15% have a hit.
Readout Label: growth inhibition (%)
// units = %; emit number, no label

# annotated cases, reported growth inhibition shown
                                   compound  value_unit  observed
0  CC/C=N/Nc1ccc([N+](=O)[O-])cc1[N+](=O)[O-]           %       1.6
1  CC[N+](CC)(CCO)CCCCCCCCCC[N+](CC)(CC)CCO           %     -1.15
2      O=C(c1ccc2c(c1)no[n+]2[O-])N(CCO)CCO           %      28.4

query: Entry `O=C(O)c1ccc(N2C(=O)c3ccccc3C2=O)cc1` : reported growth inhibition = ?
result: -18.3

query: Repeat for the following compound: `CCOC(=O)c1[nH]c(C)c(C(=O)OC(C)(C)C)c1C`
result: -4.65

query: Same read-out for CCC(C(=O)c1ccccc1)c1cccc2c1N(C(C)=O)CC2 (stereo unspecified) ?
result: 11.2

query: Record: `CCOC(=O)c1c(N=P(c2ccccc2)(c2ccccc2)c2ccccc2)nnc(-c2ccccc2)c1-c1ccccc1`
result: -6.55

query: // next record `CC(C)(O)C#Cc1ccccc1`
result: -9.5

query: Same question, Cc1ccc(S(=O)(=O)NC(CC(C)C)C(=O)O)cc1 (stereo unspecified) this time
result: 1.3

query: Continue with `C[Si]1(C)CC[Si](C)(C)OS(=O)(=O)O1`
result: -9.05

query: // query: `O=c1oc2ccc3ccccc3c2cc1-c1c[nH]c2ccccc12`
result: 6.05

====

- Method Summary: NCI Yeast Anticancer Drug Screen. Data for the sgs1 mgt1 strain (AID 161);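 also: 0% = growth of cultures given vehicle only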
- Setup Conditions: S. cerevisiae sgs1 mgt1 strain, at 50.0 µM, stronger effect = higher value
The panel holds about 79,000 compounds, 15% with a hit somewhere; the sample as a whole holds those more often.
Readout Label: growth inhibition (%)
Report the figure in % without appending any unit label.

The cases that follow already have their growth inhibition on record.
Molecule	growth inhibition / %
CCCC(P(=O)(c1ccccc1)c1ccccc1)[P+](CC)(c1ccccc1)c1ccccc1 (configuration not stated)	85.9
C/C(C=C1C(=O)NC(=S)NC1=O)=C\c1ccccc1	8.35
CC(=O)/C(=C\c1ccc(C(F)(F)F)cc1)C(=O)CCN(C)C	51.6
O=c1[nH]cc(COCC(O)CO)c(=O)[nH]1 (configuration not stated)	-43.9
C=CCN1C(=O)C/C(=C2/CCC(=O)N2CC=C)C1=O	-16
Clc1ccccc1CSc1cnnc(SCc2ccccc2Cl)c1SCc1ccccc1Cl	6.4

query: Would you kindly share the measured growth inhibition for `Cn1c(=O)c2c(nc(N)n2C)n(C)c1=O` ?
result: 5.8

query: Another molecule to look at: `Cc1cc2[nH]c(=O)c(=O)[nH]c2cc1C`
result: 7.15

query: And for COc1cc(/C=C/C(=O)OCC23CC[C@@]4(C(=O)O)CCC(C)[C@H](C)C4C2=CCC2[C@@]4(C)CC[C@H](O)C(C)(C)C4CC[C@]23C)ccc1O (some centres not stated) ?
result: 26.6

query: Now the molecule CCOC(=O)CCC1(C(=O)OCC)CCCCC1=O (configuration not stated)
result: -48.5

query: Same question for COC1/C=C/C(C)C(C(C)C(OC)C(C)CCC(=O)C(C)C(C/C=C/N(C)C=O)OC)OC(=O)/C=C/C=C(\C)CC(OC)C(OC)C2=CC(=O)O[C@@H](C(C)C(OC)CC(OC)/C=C/C(C)C(O)C1)[C@H]2O (some centres not stated) please.
result: 90

query: Same lookup for CCOC(=O)C(NC(C)=O)C(O)c1ccc(Cl)cc1Cl (configuration not stated) , please.
result: 0.05

query: Proceed to CC(C)C(CCN1CCCC1(C)C)(C(N)=O)c1ccccc1 (configuration not stated)
result: -4.2

query: Again, but for CCCC(CCc1ccccc1)C(=O)NC(N)=O (configuration not stated)
result: 1.45

query: Then this molecule: `c1ccc2c(c1)CCN2CCN1CCc2ccccc21`
result: 20.1

query: Next molecule up: `Cc1ccc(S(=O)(=O)/C(C#N)=C\N2CCNC2=S)cc1`
result: -6.4

query: What do you get for `Brc1ccc2oc3ccccc3c2c1` ?
result: 18.4

query: And for `CCCCCCCCCCCCNC` ?
result: 61.9

query: Now this one: `Cc1c(/C=N/NC(=O)c2ccc(Cl)cc2)c(=O)n(-c2ccccc2)n1C`
result: -53.4

query: Request: `O=C1CN(/N=C/c2ccc(-c3cccc(C(F)(F)F)c3)o2)C(=O)N1`
result: 19.8

query: # iterate: `CCCCCCCCCCCCCCC(=O)Cl`
result: 5.8

query: Try this molecule too: `COc1ccc(C(=CC2=CC(=O)C3=C(CCCC3)C2=O)c2ccc(OC)cc2)cc1`
result: -4.6

query: // next record `COc1cccc(C(=O)CCN(C)C)c1`
result: -2.8

query: Record: `CCCCC(O)(CC)CC`
result: -3.6

query: # iterate: O=C(Nc1ccc(Cl)c(Cl)c1)OC1C=CS(=O)(=O)C1 (configuration not stated)
result: -12.3

query: Quick one: `CS/C(=N/N=C(\C)c1ccccn1)[Se][Se]/C(=N/N=C(\C)c1ccccn1)SC`
result: 15.6

query: Similarly, `C1=Nc2ccccc2Cn2nncc21` ?
result: 43.1

query: Repeat for the following molecule: `CCCCNc1nnc(N)s1`
result: -10.3

query: Next molecule: `Cc1cccc(C)c1Nc1ncnc2c1cnn2C`
result: -1.2

query: Similarly, Nc1ccn(C2CC3OCC3O2)c(=O)n1 (configuration not stated) ?
result: -1.25

Value source: PubChem BioAssay (NCI)
